The measured values listed here are drawn from paper PMC10850501.

Test: Cytocompatibility (CCK8)
Format: cell-based, human
Conditions: human, A549 cells, 1 mM peptide; replicate 3; CCK8, 6 h; read-out: cytocompatibility, normalized to serum free media
Peptide text beside a SMILES is read from it.
Measurement Type: viability at 6 h, 1000 µM (%)
The response must be a number in % with no trailing unit.

Input: Quick check: viability at 6 h, 1000 µM of CC(=O)N[C@@H](CCC(=O)O)C(=O)N[C@@H](CO)C(=O)N[C@@H](CC(C)C)C(=O)N[C@@H](CO)C(=O)N[C@@H](CC(C)C)C(=O)N[C@@H](CO)C(=O)N[C@@H](CC(C)C)C(=O)N[C@@H](CO)C(=O)N[C@@H](CC(C)C)C(=O)N[C@@H](CO)C(=O)N[C@@H](CC(C)C)C(=O)N[C@@H](CO)C(=O)N[C@@H](CC(C)C)C(=O)N[C@@H](CCC(=O)O)C(N)=O [E1] (Ac-ESLSLSLSLSLSLE-NH2) ?
Output: 139

----------
Test: Cytocompatibility (CCK8)
Format: cell-based, human
Settings: human, A549 cells, 0.1 mM peptide; replicate 2; CCK8, 6 h; read-out: cytocompatibility, normalized to serum free media
Measurement Type: viability at 6 h, 100 µM (%)
The response must be a number in % with no trailing unit.

Input: Quick check: viability at 6 h, 100 µM of Ac-ESLSLSLSLSLSLEGSALEEQLKTFLDKFMHELEDLLYQLAL-NH2 [ESBP2] ?
Output: 132

----------
Assay: Cytocompatibility (CCK8)
Type: cell-based, human
Settings: human, A549 cells, 0.01 mM peptide; replicate 1; CCK8, 6 h; read-out: cytocompatibility, normalized to serum free media
Peptide text beside a SMILES is read from it.
Measurement Type: viability at 6 h, 10 µM (%)
The response must be a number in % with no trailing unit.

Input: Quick check: viability at 6 h, 10 µM of CC(=O)N[C@@H](CCC(=O)O)C(=O)N[C@@H](CO)C(=O)N[C@@H](CC(C)C)C(=O)N[C@@H](CO)C(=O)N[C@@H](CC(C)C)C(=O)N[C@@H](CO)C(=O)N[C@@H](CC(C)C)C(=O)N[C@@H](CO)C(=O)N[C@@H](CC(C)C)C(=O)N[C@@H](CO)C(=O)N[C@@H](CC(C)C)C(=O)N[C@@H](CO)C(=O)N[C@@H](CC(C)C)C(=O)N[C@@H](CCC(=O)O)C(N)=O [E1] (Ac-ESLSLSLSLSLSLE-NH2) ?
Output: 117

----------
Test: Cytocompatibility (CCK8)
Assay type: cell-based, human
Details: human, A549 cells, 1 mM peptide; replicate 2; CCK8, 6 h; read-out: cytocompatibility, normalized to serum free media
Peptide text beside a SMILES is read from it.
Measurement Type: viability at 6 h, 1000 µM (%)
The response must be a number in % with no trailing unit.

Input: Quick check: viability at 6 h, 1000 µM of CC(=O)N[C@@H](CCC(=O)O)C(=O)N[C@@H](CO)C(=O)N[C@@H](CC(C)C)C(=O)N[C@@H](CO)C(=O)N[C@@H](CC(C)C)C(=O)N[C@@H](CO)C(=O)N[C@@H](CC(C)C)C(=O)N[C@@H](CO)C(=O)N[C@@H](CC(C)C)C(=O)N[C@@H](CO)C(=O)N[C@@H](CC(C)C)C(=O)N[C@@H](CO)C(=O)N[C@@H](CC(C)C)C(=O)N[C@@H](CCC(=O)O)C(N)=O [E1] (Ac-ESLSLSLSLSLSLE-NH2) ?
Output: 195

----------
Test: Acute IV pharmacokinetics
Type: in vivo, rat (female Wistar)
Settings: female, rat, 10 mg/mL; ESBP2 IV bolus through the tail vein, Wistar rats (n=8); plasma, HPLC; read-out: time of concentration peak (converted)
Measurement Type: Tmax (min)
The response must be a number in min with no trailing unit.

Input: Quick check: Tmax of Ac-ESLSLSLSLSLSLEGSALEEQLKTFLDKFMHELEDLLYQLAL-NH2 [ESBP2] ?
Output: 30

----------
Test: Cytocompatibility (CCK8)
Format: cell-based, human
Details: human, A549 cells, 1 mM peptide; replicate 1; CCK8, 6 h exposure, absorbance 450 nm; read-out: cytocompatibility, normalized to serum free media
Peptide text beside a SMILES is read from it.
Measurement Type: viability at 6 h, 1000 µM (%)
The response must be a number in % with no trailing unit.

Input: Quick check: viability at 6 h, 1000 µM of CC(=O)N[C@@H](CCC(=O)O)C(=O)N[C@@H](CO)C(=O)N[C@@H](CC(C)C)C(=O)N[C@@H](CO)C(=O)N[C@@H](CC(C)C)C(=O)N[C@@H](CO)C(=O)N[C@@H](CC(C)C)C(=O)N[C@@H](CO)C(=O)N[C@@H](CC(C)C)C(=O)N[C@@H](CO)C(=O)N[C@@H](CC(C)C)C(=O)N[C@@H](CO)C(=O)N[C@@H](CC(C)C)C(=O)N[C@@H](CCC(=O)O)C(N)=O [E1] (Ac-ESLSLSLSLSLSLE-NH2) ?
Output: 169

----------
Experiment: Cytocompatibility (CCK8)
Format: cell-based, human
Settings: human, A549 cells, 0.1 mM peptide; replicate 2; CCK8, 6 h; read-out: cytocompatibility, normalized to serum free media
Peptide text beside a SMILES is read from it.
Measurement Type: viability at 6 h, 100 µM (%)
The response must be a number in % with no trailing unit.

Input: Quick check: viability at 6 h, 100 µM of CC(=O)N[C@@H](CCC(=O)O)C(=O)N[C@@H](CO)C(=O)N[C@@H](CC(C)C)C(=O)N[C@@H](CO)C(=O)N[C@@H](CC(C)C)C(=O)N[C@@H](CO)C(=O)N[C@@H](CC(C)C)C(=O)N[C@@H](CO)C(=O)N[C@@H](CC(C)C)C(=O)N[C@@H](CO)C(=O)N[C@@H](CC(C)C)C(=O)N[C@@H](CO)C(=O)N[C@@H](CC(C)C)C(=O)N[C@@H](CCC(=O)O)C(N)=O [E1] (Ac-ESLSLSLSLSLSLE-NH2) ?
Output: 147

----------
Experiment: Cytocompatibility (CCK8)
Assay type: cell-based, human
Conditions: human, A549 cells, 1 mM peptide; replicate 1; CCK8, 6 h exposure, absorbance 450 nm; read-out: cytocompatibility, normalized to serum free media
Measurement Type: viability at 6 h, 1000 µM (%)
The response must be a number in % with no trailing unit.

Input: Quick check: viability at 6 h, 1000 µM of Ac-ESLSLSLSLSLSLEGSALEEQLKTFLDKFMHELEDLLYQLAL-NH2 [ESBP2] ?
Output: 117

----------
Test: Cytocompatibility (CCK8)
Format: cell-based, human
Conditions: human, A549 cells, 0.01 mM peptide; replicate 2; CCK8, 6 h; read-out: cytocompatibility, normalized to serum free media
Peptide text beside a SMILES is read from it.
Measurement Type: viability at 6 h, 10 µM
Please provide the amount together with its unit, number first.

Input: Quick check: viability at 6 h, 10 µM of CC(=O)N[C@@H](CCC(=O)O)C(=O)N[C@@H](CO)C(=O)N[C@@H](CC(C)C)C(=O)N[C@@H](CO)C(=O)N[C@@H](CC(C)C)C(=O)N[C@@H](CO)C(=O)N[C@@H](CC(C)C)C(=O)N[C@@H](CO)C(=O)N[C@@H](CC(C)C)C(=O)N[C@@H](CO)C(=O)N[C@@H](CC(C)C)C(=O)N[C@@H](CO)C(=O)N[C@@H](CC(C)C)C(=O)N[C@@H](CCC(=O)O)C(N)=O [E1] (Ac-ESLSLSLSLSLSLE-NH2) ?
Output: 122%

----------
Assay: Cytocompatibility (CCK8)
Type: cell-based, human
Details: human, A549 cells, 1 mM peptide; replicate 2; CCK8, 6 h; read-out: cytocompatibility, normalized to serum free media
Procedure: Cytocompatibility of the peptides was evaluated at 1, 0.1, and 0.01 mM with A549 cells (ATCC CCL-185) cultured in complete media consisting of 90% F-12K and 10% FBS. […] The plate was incubated for 1 hour and read on a Tecan M200 Infinite plate reader at an absorbance of 450 nm with a reference wavelength of 650 nm. The results were analyzed and normalized to the serum-free media control[28],[32],[76].
Measurement Type: viability at 6 h, 1000 µM (%)
The response must be a number in % with no trailing unit.

Input: Quick check: viability at 6 h, 1000 µM of Ac-ESLSLSLSLSLSLEGSALEEQLKTFLDKFMHELEDLLYQLAL-NH2 [ESBP2] ?
Output: 104

----------
Assay: Cytocompatibility (CCK8)
Type: cell-based, human
Conditions: human, A549 cells, 0.1 mM peptide; replicate 1; CCK8, 6 h; read-out: cytocompatibility, normalized to serum free media
Peptide text beside a SMILES is read from it.
Measurement Type: viability at 6 h, 100 µM (%)
The response must be a number in % with no trailing unit.

Input: Quick check: viability at 6 h, 100 µM of CC(=O)N[C@@H](CCC(=O)O)C(=O)N[C@@H](CO)C(=O)N[C@@H](CC(C)C)C(=O)N[C@@H](CO)C(=O)N[C@@H](CC(C)C)C(=O)N[C@@H](CO)C(=O)N[C@@H](CC(C)C)C(=O)N[C@@H](CO)C(=O)N[C@@H](CC(C)C)C(=O)N[C@@H](CO)C(=O)N[C@@H](CC(C)C)C(=O)N[C@@H](CO)C(=O)N[C@@H](CC(C)C)C(=O)N[C@@H](CCC(=O)O)C(N)=O [E1] (Ac-ESLSLSLSLSLSLE-NH2) ?
Output: 111
